- System: Trypsin
- Test description: Relative reaction rate of enzymatic hydrolysis of chromogenic substrates, trypsin (p-nitroaniline release at 405 nm)
- Format: biochemical
- Condition context: relative to reference substrate XIII
Where a SMILES comes first, the peptide text is derived from it. The star is where a group is joined. pNA = O=[N+]([O-])c1ccc(N*)cc1
Overview of recorded Rel Reaction rates, Try (Trypsin) for various molecules

What value of measured Rel Reaction rates, Try (Trypsin) is listed for CC(C)[C@H](N)C(=O)N1CCC[C@H]1C(=O)N[C@@H](CCCNC(=N)N)C(=O)Nc1ccc([N+](=O)[O-])cc1 [H-Val-Pro-Arg-pNA] (H-Val-Pro-Arg-pNA) ? 55

###

- Test description: Solubility in buffer
- Type: physicochemical
- Condition context: aqueous buffer; Buffer = Tris, pH 8.2, I 0.15
Where a name gives a salt, the structure may show the parent alone. Where a SMILES comes first, the peptide text is derived from it. [ ]: non-standard residue; d: D form. The star is where a group is joined. pNA = O=[N+]([O-])c1ccc(N*)cc1; Bz = O=C(c1ccccc1)*
# reported log10(solubility); entries follow
A difference of one corresponds to tenfold solubility; all values are log10 with solubility in µg/mL.

Please review the following examples before continuing.
Molecule	Reported
CC(C)C[C@H](NC(=O)[C@@H](NC(=O)c1ccccc1)C(C)C)C(=O)N[C@@H](CCCCN)C(=O)Nc1ccc([N+](=O)[O-])cc1 [Bz-Val-Leu-Lys-pNA] (Bz-Val-Leu-Lys-pNA)	2.70
CC(C)C[C@H](NC(=O)[C@@H](NC(=O)c1ccccc1)C(C)C)C(=O)N[C@@H](CCCNC(=N)N)C(=O)Nc1ccc([N+](=O)[O-])cc1 [Bz-Val-Leu-Arg-pNA] (Bz-Val-Leu-Arg-pNA)	2.30
CC(C)C[C@H](NC(=O)[C@H](N)C(C)C)C(=O)N[C@@H](CCCNC(=N)N)C(=O)Nc1ccc([N+](=O)[O-])cc1 [XVI, H-D-Val-Leu-ARg-pNA . 2 HCl] (H-[dV]-Leu-Arg-pNA)	5.78
CC[C@H](C)[C@H](NC(=O)c1ccccc1)C(=O)N[C@@H](CC(C)C)C(=O)N[C@@H](CCCCN)C(=O)Nc1ccc([N+](=O)[O-])cc1 [Bz-Ile-Leu-Lys-pNA] (Bz-Ile-Leu-Lys-pNA)	3.00
CC(C)[C@H](NC(=O)c1ccccc1)C(=O)N1CCC[C@H]1C(=O)N[C@@H](CCCNC(=N)N)C(=O)Nc1ccc([N+](=O)[O-])cc1 [Bz-Val-Pro-Arg-pNA] (Bz-Val-Pro-Arg-pNA)	2.48

log10(solubility) lookup needed for CC(C)[C@@H](N)C(=O)N1CCC[C@H]1C(=O)N[C@@H](CCCNC(=N)N)C(=O)Nc1ccc([N+](=O)[O-])cc1 [XIII, H-D-Val-Pro-Arg-pNA . 2 HCl] (H-[dV]-Pro-Arg-pNA) , thanks. 5.00

Check CC[C@H](C)[C@H](NC(=O)c1ccccc1)C(=O)N[C@@H](CC(C)C)C(=O)N[C@@H](CCCNC(=N)N)C(=O)Nc1ccc([N+](=O)[O-])cc1 [Bz-Ile-Leu-Arg-pNA] (Bz-Ile-Leu-Arg-pNA) too. 2.30

Ok, now CC[C@@H](C)[C@@H](N)C(=O)N[C@@H](CC(C)C)C(=O)N[C@@H](CCCNC(=N)N)C(=O)Nc1ccc([N+](=O)[O-])cc1 [XV, H-D-Ile-Leu-Arg-pNA . 2 HCl] (H-[dI]-Leu-Arg-pNA) 3.60

Now consider CC(C)[C@H](N)C(=O)N1CCC[C@H]1C(=O)N[C@@H](CCCNC(=N)N)C(=O)Nc1ccc([N+](=O)[O-])cc1 [H-Val-Pro-Arg-pNA] (H-Val-Pro-Arg-pNA) . 4.60

Again, but for CC[C@@H](C)[C@@H](N)C(=O)N[C@@H](CC(C)C)C(=O)N[C@@H](CCCCN)C(=O)Nc1ccc([N+](=O)[O-])cc1 [XVII, H-D-Ile-Leu-Lys-pNA . 2 HCl] (H-[dI]-Leu-Lys-pNA) 4.30
